Provenance of the data: PubChem BioAssay (NCI)

Measured growth of individual entries
Test system: SN12C renal
Assay: NCI-60 one-dose screen, 48 h (100 = growth as untreated, 0 = no growth, -100 = all killed)
Conditions: 10 µM unless noted
About 83,000 compounds went through this panel and 20% of them were active in at least one assay; those are over-represented in the sample as a whole.
Could you give me the number in %? Just the number is fine.

Below: 2 compounds and their reported growth.
> print(dat)
                                smiles.code  units.text  measured
1  O=C(O)/C=C\C(=O)N1C/C(=C\c2ccccc2Cl)C(=O)/C(=C/c2ccccc2Cl)C1           %     -30.7
2  COc1ccc(C(=O)c2cc3c(N)c(C(=O)Nc4cccc(OC)c4)sc3nc2C)cc1           %      28.1

Lookup result for Cn1c(COC(=O)NCCc2ccccn2)nc2c(N3CCOCC3)nc(Cl)nc21 ; measured growth: -41.5

Note to self: growth recorded for Cc1c(C(=O)NO)sc2ncnc(Nc3ccc(NC(=S)Nc4ccccc4)cc3)c12 was 101

Entry CC[C@H](CC[C@@H](C)[C@H]1CC[C@H]2[C@@H]3CC=C4C[C@@H](OCCc5nn[nH]n5)CC[C@]4(C)[C@H]3CC[C@]12C)C(C)C , growth reported as 108
